meta.source: ChEMBL document CHEMBL1133584

Biological target: Endothelin-converting enzyme 1 (Homo sapiens) (UniProt P42892)
Experiment: Inhibition of Endothelin-converting enzyme 1 activity at a concentration of 1 uM
Recorded inhibition values for a group of compounds are listed next.
Express your answer in %, writing the number without its unit.

Recorded results for 3 compounds are shown here.
Query: inhibition; subject: COc1cccc(CCC(N[C@@H](Cc2ccc3c(c2)oc2ccccc23)C(=O)O)P(=O)(O)O)c1OC (stereo in doubt; 40d') 85

Query: inhibition; subject: O=C(O)[C@H](Cc1ccc2c(c1)oc1ccccc12)NC(CCc1cccc2cccnc12)P(=O)(O)O (stereo in doubt; 40n') 78

Query: inhibition; subject: COc1cc(OC)c(OC)cc1CCC(N[C@@H](Cc1ccc2c(c1)oc1ccccc12)C(=O)O)P(=O)(O)O (stereo in doubt; 40j') 38

Proceeding to the next compound to report its inhibition.
Query: inhibition; subject: COc1ccc(CCC(N[C@@H](Cc2ccc3c(c2)oc2ccccc23)C(=O)O)P(=O)(O)O)c(OC)c1OC (stereo in doubt; 40l') 64

---

Biological target: Endothelin-converting enzyme 1 (Homo sapiens)
Sequence (P42892 whole entry): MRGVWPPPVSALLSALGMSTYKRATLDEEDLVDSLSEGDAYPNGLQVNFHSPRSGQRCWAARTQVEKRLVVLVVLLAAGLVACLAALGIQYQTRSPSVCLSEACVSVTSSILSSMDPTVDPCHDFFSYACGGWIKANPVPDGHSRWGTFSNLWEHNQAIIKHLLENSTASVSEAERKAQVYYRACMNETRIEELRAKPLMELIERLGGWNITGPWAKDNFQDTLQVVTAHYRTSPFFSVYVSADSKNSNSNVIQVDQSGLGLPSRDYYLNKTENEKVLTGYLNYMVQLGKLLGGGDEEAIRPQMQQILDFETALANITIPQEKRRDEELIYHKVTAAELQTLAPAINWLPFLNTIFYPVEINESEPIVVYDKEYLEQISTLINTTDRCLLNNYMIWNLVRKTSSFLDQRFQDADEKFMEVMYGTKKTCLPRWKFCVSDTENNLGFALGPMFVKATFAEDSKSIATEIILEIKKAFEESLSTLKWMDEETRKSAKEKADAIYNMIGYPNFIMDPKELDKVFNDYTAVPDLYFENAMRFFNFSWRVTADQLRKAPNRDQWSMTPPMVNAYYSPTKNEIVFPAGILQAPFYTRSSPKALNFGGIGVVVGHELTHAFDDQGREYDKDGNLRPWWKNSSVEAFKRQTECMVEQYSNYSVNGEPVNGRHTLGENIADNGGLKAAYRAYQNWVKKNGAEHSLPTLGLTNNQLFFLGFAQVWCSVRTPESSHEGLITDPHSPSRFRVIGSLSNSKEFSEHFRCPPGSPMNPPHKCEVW
Assay: In Vitro inhibition of recombinant human endothelin converting enzyme-1
Recorded IC50 values for a group of compounds are listed next.
Express your answer in nM, writing the number without its unit.

Recorded results for 3 compounds are shown here.
Query: IC50; subject: O=P(O)(O)CNC(Cc1ccc2c(c1)Cc1ccccc1-2)c1nnn[nH]1 (centres undefined) 520

Query: IC50; subject: COc1cc(OC)c(OC)cc1CCC(N[C@@H](Cc1ccc2c(c1)oc1ccccc12)C(=O)O)P(=O)(O)O (stereo in doubt; 40i') 40

Query: IC50; subject: COc1cccc(CCC(N[C@@H](Cc2ccc3c(c2)oc2ccccc23)C(=O)O)P(=O)(O)O)c1OC (stereo in doubt; 40d') 110

Proceeding to the next compound to report its IC50.
Query: IC50; subject: COc1cc(CCC(N[C@@H](Cc2ccc3c(c2)oc2ccccc23)C(=O)O)P(=O)(O)O)cc(OC)c1OC (some centres undefined) 22
